molecular target: TLR2 (Homo sapiens, UniProt O60603); assay: TLR2 agonist screening assay, HEK-Blue TLR2 reporter cell line (NF-kB-driven SEAP, absorbance at 600 nm); assay type: cell-based; set-up: host or cells: HEK-293 (HEK-Blue TLR2 reporter cell line); conditions: HEK-Blue TLR2 reporter cells, agonist mode; average of all runs (Table 4)
Sequence (O60603 21-784): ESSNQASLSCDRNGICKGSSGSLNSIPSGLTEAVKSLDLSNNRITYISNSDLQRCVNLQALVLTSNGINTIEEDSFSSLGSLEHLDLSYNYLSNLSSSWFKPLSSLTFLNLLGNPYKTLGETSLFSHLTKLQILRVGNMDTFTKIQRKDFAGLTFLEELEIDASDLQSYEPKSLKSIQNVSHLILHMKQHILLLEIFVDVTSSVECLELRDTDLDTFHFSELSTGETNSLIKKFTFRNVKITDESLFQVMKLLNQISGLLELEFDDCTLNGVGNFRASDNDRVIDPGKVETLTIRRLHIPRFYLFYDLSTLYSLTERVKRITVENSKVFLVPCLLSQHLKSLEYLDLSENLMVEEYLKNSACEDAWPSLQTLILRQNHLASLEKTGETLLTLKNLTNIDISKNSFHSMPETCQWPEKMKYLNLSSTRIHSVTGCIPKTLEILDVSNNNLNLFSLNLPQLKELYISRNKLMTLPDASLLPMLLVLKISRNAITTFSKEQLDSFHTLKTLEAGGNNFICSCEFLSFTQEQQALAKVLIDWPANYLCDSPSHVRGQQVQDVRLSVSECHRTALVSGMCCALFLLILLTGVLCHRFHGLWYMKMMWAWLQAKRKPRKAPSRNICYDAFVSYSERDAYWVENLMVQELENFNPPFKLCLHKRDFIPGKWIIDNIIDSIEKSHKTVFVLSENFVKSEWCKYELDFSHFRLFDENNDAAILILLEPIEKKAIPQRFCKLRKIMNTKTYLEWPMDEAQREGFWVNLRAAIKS
MEASUREMENT_LABEL: EC50

Example compounds with recorded EC50:
1) CCCCCCNC(=O)[C@H]1CN(C(c2ccc(C(=O)N3C[C@@H](C(=O)N[C@H]4C[C@@H]4c4ccccc4)[C@H](C(=O)N[C@H]4C[C@@H]4c4ccccc4)C3)cc2)C(F)(F)F)CCN1C(=O)CCCCCC (some centres unmarked) [Compound 158] | > 1000 nM
2) CO[C@H]1CN(C(=O)c2ccc(C(=O)N3C[C@@H](C(=O)N[C@H]4C[C@@H]4c4ccccc4)[C@H](C(=O)N[C@H]4C[C@@H]4c4ccccc4)C3)cc2)C[C@@H]1NC(=O)N[C@H]1C[C@@H]1c1ccccc1 [Compound 224] | > 1000 nM
3) CCCCCCCCCCCCCCNC(=O)N[C@@H]1CCCN(C(=O)c2ccc(C(=O)N3C[C@@H](C(=O)N[C@H]4C[C@@H]4c4ccccc4)[C@H](C(=O)N[C@H]4C[C@@H]4c4ccccc4)C3)cc2)C1 [Compound 206] | 0.1 to 50 nM

Q: # input compound: CCCCCCCCNC(=O)N[C@@H](CNC(=O)c1ccc(C(=O)N2C[C@@H](C(=O)N[C@H]3C[C@@H]3c3ccccc3)[C@H](C(=O)N[C@H]3C[C@@H]3c3ccccc3)C2)cc1)C(=O)NCCCCCC [Compound 211] ; wanted: its EC50
Ans: 0.1 to 50 nM

Q: Same read-out for CCCCCCCCCCCNC(=O)N[C@H]1CN(C(=O)c2ccc(C(=O)N3C[C@@H](C(=O)N[C@H]4C[C@@H]4c4ccccc4)[C@H](C(=O)N[C@H]4C[C@@H]4c4ccccc4)C3)cc2)C[C@@H]1OC [Compound 199] ?
Ans: 0.1 to 50 nM

Q: Same read-out for CCCCCCCC(=O)N1CCCN(C(=O)c2cccc(C(=O)N3C[C@@H](C(=O)N[C@H]4C[C@@H]4c4ccccc4)[C@H](C(=O)N[C@H]4C[C@@H]4c4ccccc4)C3)c2)C[C@H]1C(=O)NCCCCCC (single isomer, unassigned) [Compound 190] ?
Ans: 351 to 1000 nM

Q: Same read-out for CCCCCCCCCCCCCCN1C(=O)CNC(=O)[C@@H]1CNC(=O)c1ccc(C(=O)N2C[C@@H](C(=O)N[C@H]3C[C@@H]3c3ccccc3)[C@H](C(=O)N[C@H]3C[C@@H]3c3ccccc3)C2)cc1 [Compound 147] ?
Ans: > 1000 nM

Q: Same read-out for CCCCCCCCCCCCCNC(=O)N[C@@H]1CCN(C(=O)c2ccc(C(=O)N3C[C@@H](C(=O)N[C@H]4C[C@@H]4c4ccccc4)[C@H](C(=O)N[C@H]4C[C@@H]4c4ccccc4)C3)cc2)C1 [Compound 079] ?
Ans: 0.1 to 50 nM

Q: Same read-out for O=C(N[C@H]1C[C@@H]1c1ccccc1)[C@@H]1CN(C(=O)c2ccc(C(=O)N3C[C@@H](C(=O)N[C@H]4C[C@@H]4c4cccnc4)[C@H](C(=O)N[C@H]4C[C@@H]4c4cccnc4)C3)cc2)C[C@H]1C(=O)N[C@H]1C[C@@H]1c1ccccc1 (single isomer, unassigned) [Compound 094] ?
Ans: 51 to 350 nM

Q: Same read-out for CCCCCCCCCCCCCCCN[C@H]1CN(C(=O)c2ccc(C(=O)N3C[C@@H](C(=O)N[C@H]4C[C@@H]4c4ccccc4)[C@H](C(=O)N[C@H]4C[C@@H]4c4ccccc4)C3)cc2)C[C@@H]1O [Compound 087] ?
Ans: > 1000 nM

Q: Same read-out for CCCCCCCCCCCCCCNC(=O)[C@H]1CN(C(=O)c2ccc(C(=O)N3C[C@@H](C(=O)N[C@H]4C[C@@H]4c4ccccc4)[C@H](C(=O)N[C@H]4C[C@@H]4c4ccccc4)C3)cc2)C[C@@H]1O (single isomer, unassigned) [Compound 106] ?
Ans: 51 to 350 nM

Q: Same read-out for CCCCCCCCCCCCCCNC(=O)[C@H]1CN(C(=O)c2ccc(C(=O)N3C[C@@H](C(=O)N[C@H]4C[C@@H]4c4ccccc4)[C@H](C(=O)N[C@H]4C[C@@H]4c4ccccc4)C3)cc2)C[C@H]1OC (relative stereo) [Compound 108] ?
Ans: 0.1 to 50 nM

Q: Same read-out for CCCCCCCCCCCCCNC(=O)N[C@@H]1CCCN(C(=O)c2ccc(C(=O)N3C[C@@H](C(=O)N[C@H]4C[C@@H]4c4ccccc4)[C@H](C(=O)N[C@H]4C[C@@H]4c4ccccc4)C3)cc2)C1 [Compound 205] ?
Ans: 0.1 to 50 nM

Q: Same read-out for CCCCCCNC(=O)[C@H](CNC(=O)c1ccc(C(=O)N2C[C@@H](C(=O)N[C@H]3C[C@@H]3c3ccccc3)[C@H](C(=O)N[C@H]3C[C@@H]3c3ccccc3)C2)cc1)NC(=O)CCc1ccc(F)cc1 [Compound 139] ?
Ans: 0.1 to 50 nM

Q: Same read-out for CCCCCCCCCC(=O)N[C@@H](COC(=O)Nc1ccc(C(=O)N2C[C@@H](C(=O)N[C@H]3C[C@@H]3c3ccccc3)[C@H](C(=O)N[C@H]3C[C@@H]3c3ccccc3)C2)cc1)C(=O)NCCCCCC [Compound 239] ?
Ans: 0.1 to 50 nM

Q: Same read-out for O=C(N[C@H]1C[C@@H]1c1ccccc1)[C@@H]1CN(C(=O)C23CCC(C(=O)N4C[C@@H](C(=O)N[C@H]5C[C@@H]5c5ccccc5)[C@H](C(=O)N[C@H]5C[C@@H]5c5ccccc5)C4)(C2)C3)C[C@H]1C(=O)N[C@H]1C[C@@H]1c1ccccc1 [Compound 144] ?
Ans: 351 to 1000 nM

Q: Same read-out for CCCCCCCCCCCCCCNC(=O)[C@H]1CN(S(=O)(=O)c2cccc(C(=O)N3C[C@@H](C(=O)N[C@H]4C[C@@H]4c4ccccc4)[C@H](C(=O)N[C@H]4C[C@@H]4c4ccccc4)C3)c2)CCN1C(C)=O [Compound 192] ?
Ans: 351 to 1000 nM

---

Biological target: TLR2 (Homo sapiens, UniProt O60603)
Assay: TLR2 agonist screening assay, HEK-Blue TLR2 reporter cell line (NF-kB-driven SEAP, absorbance at 600 nm)
Type: cell-based
Set-up: host or cells: HEK-293 (HEK-Blue TLR2 reporter cell line)
Conditions: HEK-Blue TLR2 reporter cells, agonist mode; average of all runs (Table 3)
Excerpt: TLRs are a class of cell-surface receptors expressed on many different cell types that recognize conserved structural motifs present on pathogen-derived molecules. TLR2 recognizes bacteria-derived lipopeptides. […] The in vitro TLR2 assay consists of a cell line that responds to TLR2 engagement by producing a factor that elicits a color change in the culture media and can be readily measured by various colorimetric detection methods. […]
Where a name gives a salt, the structure may show the parent alone.
The entries below are paired with their reported EC50.

Example compounds with recorded EC50:
1. O=C(N[C@H]1C[C@@H]1c1ccccc1)[C@@H]1CN(C(=O)C23CC(C(=O)N4C[C@@H](C(=O)N[C@H]5C[C@@H]5c5ccccc5)[C@H](C(=O)N[C@H]5C[C@@H]5c5ccccc5)C4)(C2)C3)C[C@H]1C(=O)N[C@H]1C[C@@H]1c1ccccc1 [Compound 068] | > 1000 nM
2. CCCCCCCCN1C(=O)CN(C(=O)c2ccc(C(=O)N3C[C@@H](C(=O)N[C@H]4C[C@@H]4c4ccccc4)[C@H](C(=O)N[C@H]4C[C@@H]4c4ccccc4)C3)cc2)C[C@@H]1C(=O)NCCCCCC [Compound 075] | 51 to 350 nM
3. O=C(NC1CCCCCCC1)[C@H]1CCN(C(=O)c2ccc(C(=O)N3C[C@@H](C(=O)N[C@H]4C[C@@H]4c4ccccc4)[C@H](C(=O)N[C@H]4C[C@@H]4c4ccccc4)C3)cc2)C1 [Compound 003] | > 1000 nM

Q: # input compound: CCCCCCN(CCCCCC)C(=O)[C@H]1CCN(C(=O)c2ccc(C(=O)N3C[C@@H](C(=O)N[C@H]4C[C@@H]4c4ccccc4)[C@H](C(=O)N[C@H]4C[C@@H]4c4ccccc4)C3)cc2)C1 [Compound 009] ; wanted: its EC50
Ans: > 1000 nM

Q: Same read-out for CCCCCCNC(=O)[C@@H]1CN(C(=O)c2ccc(C(=O)N3C[C@@H](C(=O)N[C@H]4C[C@@H]4c4ccccc4)[C@H](C(=O)N[C@H]4C[C@@H]4c4ccccc4)C3)cc2)C[C@@H]1O (racemic) [Compound 034] ?
Ans: 351 to 1000 nM

Q: Same read-out for CCCCCCNC(=O)C1CN(C(=O)c2ccc(C(=O)N3C[C@@H](C(=O)N[C@H]4C[C@@H]4c4ccccc4)[C@H](C(=O)N[C@H]4C[C@@H]4c4ccccc4)C3)cc2)CCN1 (stereo partly drawn) [Compound 042, formate] ?
Ans: 351 to 1000 nM

Q: Same read-out for CCCCCCCCCCCCCCNC(=O)C1CN(C(=O)c2ccc(C(=O)N3C[C@@H](C(=O)N[C@H]4C[C@@H]4c4ccccc4)[C@H](C(=O)N[C@H]4C[C@@H]4c4ccccc4)C3)cc2)CCN1C(C)=O (stereo partly drawn) [Compound 024] ?
Ans: > 1000 nM

Q: Same read-out for CCCCCCCCC(=O)N1CCN(C(=O)c2ccc(C(=O)N3C[C@@H](C(=O)N[C@H]4C[C@@H]4c4ccccc4)[C@H](C(=O)N[C@H]4C[C@@H]4c4ccccc4)C3)cc2)CC1C(=O)NCCCCCC (stereo partly drawn) [Compound 051] ?
Ans: 0.1 to 50 nM

Q: Same read-out for CCCCCCCCCCCCCCNC(=O)[C@@H]1CN(C(=O)c2ccc(C(=O)N3C[C@@H](C(=O)N[C@H]4C[C@@H]4c4ccccc4)[C@H](C(=O)N[C@H]4C[C@@H]4c4ccccc4)C3)cc2)C[C@H]1O (racemic) [Compound 045] ?
Ans: 351 to 1000 nM
